targetEntity: Uba1 (Homo sapiens, UniProt P22314)
Construct: His; host or cells: E. coli BL21(DE3)
Sequence (P22314 whole entry): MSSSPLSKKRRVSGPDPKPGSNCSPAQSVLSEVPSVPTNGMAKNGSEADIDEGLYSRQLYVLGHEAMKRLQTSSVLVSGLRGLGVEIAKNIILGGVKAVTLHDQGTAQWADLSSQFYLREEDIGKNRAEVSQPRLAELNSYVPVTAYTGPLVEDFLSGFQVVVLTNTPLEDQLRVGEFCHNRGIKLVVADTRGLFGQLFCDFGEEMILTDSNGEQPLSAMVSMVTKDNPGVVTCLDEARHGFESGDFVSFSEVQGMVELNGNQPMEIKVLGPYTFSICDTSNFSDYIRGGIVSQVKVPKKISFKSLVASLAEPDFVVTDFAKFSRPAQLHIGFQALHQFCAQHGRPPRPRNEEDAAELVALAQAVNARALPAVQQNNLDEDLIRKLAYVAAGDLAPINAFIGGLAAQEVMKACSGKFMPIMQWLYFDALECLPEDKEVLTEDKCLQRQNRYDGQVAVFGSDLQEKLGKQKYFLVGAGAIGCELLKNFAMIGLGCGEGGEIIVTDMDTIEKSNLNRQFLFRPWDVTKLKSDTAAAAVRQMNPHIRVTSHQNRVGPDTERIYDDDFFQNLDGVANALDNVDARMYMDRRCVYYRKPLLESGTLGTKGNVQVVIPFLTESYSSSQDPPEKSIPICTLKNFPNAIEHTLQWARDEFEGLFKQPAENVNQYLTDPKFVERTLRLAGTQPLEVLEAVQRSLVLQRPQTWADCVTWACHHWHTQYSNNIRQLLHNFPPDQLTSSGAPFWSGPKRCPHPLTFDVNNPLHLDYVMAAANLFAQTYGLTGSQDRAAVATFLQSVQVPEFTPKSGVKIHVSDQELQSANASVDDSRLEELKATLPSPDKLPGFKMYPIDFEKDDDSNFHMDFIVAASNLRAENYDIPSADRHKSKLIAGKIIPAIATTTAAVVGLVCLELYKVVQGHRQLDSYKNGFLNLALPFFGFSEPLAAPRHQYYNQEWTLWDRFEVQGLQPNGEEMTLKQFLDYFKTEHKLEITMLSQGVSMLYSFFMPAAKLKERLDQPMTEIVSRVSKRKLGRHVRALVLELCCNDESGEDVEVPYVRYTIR
methodNotes: Uba1~ubiquitin thioester formation (Uba1, GST-ubiquitin, ATP; silver-stained gels)
Format: biochemical
particulars: up to 500 μM
valueKind: Activity in the Uba1~ubiquitin thioester formation assay (in words)

O=c1c(O)c(-c2cc(O)c(O)c(O)c2)oc2cc(O)cc(O)c12	active
CCCCCCCCOC(=O)c1cc(O)c(O)c(O)c1 [OG, n-Octyl gallate]	active

----------
System: PCNA ubiquitination (RFC, Uba1, Rad6, Rad18, PCNA, ubiquitin)
methodNotes: Reconstituted PCNA ubiquitination cascade, Western blot quantitation
Type: biochemical, human
particulars: 15 min preincubation, 2 h with ATP, 2% DMSO; nonlinear regression; read-out: IC50 for inhibition of PCNA ubiquitination
valueKind: pIC50
Remember, pIC50 is on a log scale: it is -log10 of the molar concentration.

State the recorded pIC50 for this entry: O=C(O[C@@H]1Cc2c(O)cc(O)cc2O[C@@H]1c1ccc(O)c(O)c1)c1cc(O)c(O)c(O)c1 [ECG, (–)-Epicatechin-3-gallate]
6.27

Which pIC50 value is on record for O=c1c(O)c(-c2cc(O)c(O)c(O)c2)oc2cc(O)cc(O)c12 [Myr, Myricetin] ?
5.92

Given the entry CCCCCCCCCCCCOC(=O)c1cc(O)c(O)c(O)c1 [DG, n-Dodecyl gallate] , report its measured pIC50.
5.79

So what's the measured pIC50 for this one? O=C(O[C@@H]1Cc2c(O)cc(O)cc2O[C@@H]1c1cc(O)c(O)c(O)c1)c1cc(O)c(O)c(O)c1 [EGCG, (–)-Epigallocatechin-3-gallate]
6.64

Request the reported pIC50 associated with O=C1c2c(O)cc(O)cc2O[C@H](c2cc(O)c(O)c(O)c2)[C@H]1O [DM, (+)-Dihydromyricetin]
4.18

I'd like to know its pIC50. The compound in question is Oc1cc(O)c2c(c1)O[C@H](c1cc(O)c(O)c(O)c1)[C@H](O)C2 [EGC, (–)-Epigallocatechin]
4.36

pIC50 for CCCCCCCCOC(=O)c1cc(O)c(O)c(O)c1 [OG, n-Octyl gallate] ?
4.99
